molecular target: Bcl-2-like protein 10 (Homo sapiens); assay: TR3 peptide-Bcl-B binding displacers, biochemical primary FP assay, phenotype converters (AID 1240); conditions: GST-Bcl-B / FITC-TR3 peptide fluorescence polarization; stronger effect = higher value; compound at 3.75 mg/L;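 further: 0% = Bcl-B with tracer peptide and DMSO and 100% = tracer peptide lacking Bcl-B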
About 800 (1.6%) of roughly 50,000 compounds showed an effect of 50% or more. This excerpt belongs to a sample that is enriched for strong results.
MEASURE: displacement (%)

{"COMPOUND": "COc1cccc(-c2nnc(-c3ccncc3)o2)c1", "READOUT NUMBER": 6.6}
{"COMPOUND": "O=C1c2ccccc2-n2c1cc(C=Nc1ccc(Cl)cc1)c2O", "READOUT NUMBER": 112}
{"COMPOUND": "O=C(O)/C=C/c1cccc(NS(=O)(=O)c2cccs2)c1", "READOUT NUMBER": -13}
{"COMPOUND": "CCOC(=O)c1cc2n(c1N(C(C)=O)C(C)=O)-c1ccccc1C2=O", "READOUT NUMBER": -4.9}
{"COMPOUND": "O=C(COc1ccc([N+](=O)[O-])cc1)Nc1cc(-c2nc3ccccc3s2)ccc1Cl", "READOUT NUMBER": 9}
{"COMPOUND": "COc1ccc(-n2cnc3cc(Nc4nnc(C)c5ccccc45)ccc32)cc1", "READOUT NUMBER": 0.8}
{"COMPOUND": "CCc1ccc(OCC(=O)Nc2ccc(-c3nc4cc(C)c(C)cc4o3)c(O)c2)cc1", "READOUT NUMBER": 118}
{"COMPOUND": "Cc1ccc(-c2[nH]n3c(=O)c4c(nc3c2C)CCCC4)cc1", "READOUT NUMBER": -2.2}
{"COMPOUND": "Cc1ccc(-c2[nH]n3c(=O)c4c(nc3c2C)CCC4)cc1", "READOUT NUMBER": 60.8}
{"COMPOUND": "CC1(C)Nc2ccccc2N(Cc2ccc(Cl)c(Cl)c2)C1=O", "READOUT NUMBER": -7.9}
{"COMPOUND": "CC(C)(C)c1ccc(-c2nn(CNc3cccc(Cl)c3)c(=S)o2)cc1", "READOUT NUMBER": 14}
{"COMPOUND": "Oc1c(C=Nc2cccc3nsnc23)sc2ccccc12", "READOUT NUMBER": -12.3}
{"COMPOUND": "COc1ccccc1NC1=C(Cl)C(=O)N(c2ccc(C)cc2C)C1=O", "READOUT NUMBER": 8.3}
{"COMPOUND": "O=C(CSc1ccccn1)Nc1ccc2c(c1)C(=O)c1ccccc1C2=O", "READOUT NUMBER": 54.6}
{"COMPOUND": "O=[N+]([O-])c1ccc(/C=N\\Nc2nc(-c3ccccc3)c3cc(Cl)ccc3n2)o1", "READOUT NUMBER": -5.3}
{"COMPOUND": "COc1ccc2ccccc2c1C=Nc1ccc(C)c(I)c1", "READOUT NUMBER": -9.7}
{"COMPOUND": "CCSC1C(C)=C(C)C(=O)N1C(C)(C)c1cc(Cl)cc(Cl)c1 (stereo not given)", "READOUT NUMBER": 21.2}
{"COMPOUND": "CCOC(=O)c1ccc(Nc2nc3nonc3nc2NC(C)C)cc1", "READOUT NUMBER": -7.1}
{"COMPOUND": "O=C(COc1ccc(Cl)cc1Cl)OCc1ccccc1", "READOUT NUMBER": -9.2}
{"COMPOUND": "CCc1ccc(-c2csc(-c3cc4cccc(OC)c4oc3=O)n2)cc1", "READOUT NUMBER": -23.6}
{"COMPOUND": "O=C(COc1ccc2cc(-c3nc4ccccc4s3)c(=O)oc2c1)OCc1ccccc1", "READOUT NUMBER": 53.3}
{"COMPOUND": "COc1cccc2cc(-c3nc(-c4ccc(Cl)cc4Cl)cs3)c(=O)oc12", "READOUT NUMBER": -11.5}
{"COMPOUND": "CCc1ccc(OCC(=O)Nc2ccc(O)c(-c3nc4cc(C)ccc4o3)c2)cc1", "READOUT NUMBER": 7.4}
{"COMPOUND": "CC(=O)Nc1ccc(NC(=O)CSc2ccccn2)cc1", "READOUT NUMBER": -2.6}
{"COMPOUND": "COc1cc(C=NN2CCN(Cc3ccc(C)cc3C)CC2)cc(Br)c1O", "READOUT NUMBER": 10.3}
{"COMPOUND": "Cc1ccc(-c2[nH]n3c(=O)c4c(nc3c2C)CCS4)cc1", "READOUT NUMBER": -0.6}
{"COMPOUND": "Cc1oc2cc(OCC(=O)OCc3ccccc3)ccc2c(=O)c1-c1nc2ccccc2s1", "READOUT NUMBER": 11.3}
{"COMPOUND": "Clc1ccc2nc(N/N=C/c3ccc4c(c3)OCO4)nc(-c3ccccc3)c2c1", "READOUT NUMBER": 83.7}
{"COMPOUND": "C=C(C)COc1ccc2cc(-c3nc4ccccc4s3)c(=O)oc2c1", "READOUT NUMBER": 66.5}
{"COMPOUND": "O=C(CSc1ccccn1)Nc1ccc(F)cc1", "READOUT NUMBER": -11.4}
{"COMPOUND": "COc1ccccc1CC(=O)N1CCN(c2ccc([N+](=O)[O-])cc2)CC1", "READOUT NUMBER": 11.9}
{"COMPOUND": "COc1cc(/C=C(\\C#N)c2nc3ccccc3[nH]2)ccc1OCC(=O)O", "READOUT NUMBER": 43.5}
{"COMPOUND": "O=[N+]([O-])c1cc(C(F)(F)F)ccc1N/N=C/c1ccc(F)cc1", "READOUT NUMBER": 6.3}
{"COMPOUND": "CCc1ccccc1NC1=C(Cl)C(=O)N(c2ccc(C)cc2C)C1=O", "READOUT NUMBER": 16.8}
{"COMPOUND": "O=c1[nH]c(=O)n(-c2ccccc2Cl)c(O)c1C=Nc1ccc(Cl)cc1", "READOUT NUMBER": 18.6}
{"COMPOUND": "CCOc1cc(C2CC(=O)NC(C)=C2C(=O)OC)cc(Br)c1OC (stereo not given)", "READOUT NUMBER": 10.6}
{"COMPOUND": "CCOC(=O)COc1ccc2cc(-c3nc4ccccc4[nH]3)c(=O)oc2c1", "READOUT NUMBER": 7.3}
{"COMPOUND": "COC(=O)c1ccc(-n2ncnc2-c2ccc(Br)cc2)cc1", "READOUT NUMBER": -5.4}
{"COMPOUND": "C/C(O)=C/c1nc2ccc([N+](=O)[O-])cc2nc1/C=C(/C)O", "READOUT NUMBER": 17.3}
{"COMPOUND": "CC(=O)NCCN=Cc1c(O)[nH]c2ccccc12", "READOUT NUMBER": 14}
{"COMPOUND": "O=[N+]([O-])c1ccccc1C=Nc1cc2c(cc1Br)OCCO2", "READOUT NUMBER": -4.8}
{"COMPOUND": "O=c1oc2cc(OCc3c(F)c(F)c(F)c(F)c3F)ccc2cc1-c1ccc2ccccc2n1", "READOUT NUMBER": -49.7}
{"COMPOUND": "Cc1ccc(N2C(=O)C(Cl)=C(Nc3ccccc3F)C2=O)c(C)c1", "READOUT NUMBER": 71.5}
{"COMPOUND": "CCCC(=O)Nc1ccc(-c2nc3cc(C)c(C)cc3o2)cc1", "READOUT NUMBER": 14.7}
{"COMPOUND": "CCc1ccc(OCC(=O)Nc2ccc(-c3nc4ccccc4o3)c(O)c2)cc1", "READOUT NUMBER": 0.8}
